- Target Desc: recombinant human cGAS (aa147-522) (Homo sapiens, UniProt Q8N884)
- Construct: recombinant human cGAS (aa147-522); His6-SUMO (cleaved yes); made in house; host or cells: E. coli BL21/pLys
- Sequence (Q8N884 147-522): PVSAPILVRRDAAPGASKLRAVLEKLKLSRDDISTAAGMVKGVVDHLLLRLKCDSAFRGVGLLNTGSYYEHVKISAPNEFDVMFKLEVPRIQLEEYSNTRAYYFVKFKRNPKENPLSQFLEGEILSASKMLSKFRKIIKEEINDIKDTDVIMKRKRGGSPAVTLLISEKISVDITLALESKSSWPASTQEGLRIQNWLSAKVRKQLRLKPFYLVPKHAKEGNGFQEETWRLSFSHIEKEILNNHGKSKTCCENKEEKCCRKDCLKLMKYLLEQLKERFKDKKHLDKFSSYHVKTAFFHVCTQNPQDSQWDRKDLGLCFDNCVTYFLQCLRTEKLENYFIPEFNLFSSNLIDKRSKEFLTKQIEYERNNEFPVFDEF
- Assay Overview: In vitro inhibition assay of cGAS activity (ATP consumption, KinaseGlo Max)
- Format: biochemical
- Condition Info: Table 2, read-out: cGAS Inhibition Results IC50
pIC50: −log10 of the molar value.
Property Label: pIC50

Compound: O=C(O)c1cccc(-c2cc(-n3ccnc3)c3ccc(Cl)cc3n2)c1 [I-6]
Property Label: pIC50
Assay Value: > 5.70

Compound: C[C@@H](Nc1cc(-c2cn[nH]c2)nc2c(Cl)c(Cl)ccc12)C(=O)O [I-286]
Property Label: pIC50
Assay Value: > 5.70

Compound: CC(C)(C)c1ccc2c(-c3cn[nH]c3)cc(NCCS(N)(=O)=O)nc2c1 [I-268]
Property Label: pIC50
Assay Value: < 4.52

Compound: CN(CCCO[PH](=O)OCCC#N)c1cc(-c2cn[nH]c2)c2ccc(Cl)c(Cl)c2n1 (stereo not drawn) [I-257]
Property Label: pIC50
Assay Value: > 5.70

Compound: O[C@@H]1CCN(c2cc(-n3ccnc3)c3ccc(Cl)c(Cl)c3n2)C1 [I-145]
Property Label: pIC50
Assay Value: > 5.70

Compound: CC(C)N(CCN1CCOCC1)c1cc(-c2cn[nH]c2)c2ccc(Cl)c(Cl)c2n1 [I-358]
Property Label: pIC50
Assay Value: 4.52 to 5.70

Compound: Cc1cc(N2CCS(=O)(=O)CC2)c2ccc(Cl)c(Cl)c2n1 [I-303]
Property Label: pIC50
Assay Value: < 4.52

Compound: CC(O)CN(C)c1cc(-n2ccnc2)c2ccc(Cl)c(Cl)c2n1 (stereo not drawn) [I-243]
Property Label: pIC50
Assay Value: > 5.70

Compound: Cc1c(Cl)ccc2c(-n3ccnc3)ccnc12 [I-421]
Property Label: pIC50
Assay Value: 4.52 to 5.70

Compound: NS(=O)(=O)CC1CCN(c2cc(-n3ccnc3)c3ccc(Cl)c(Cl)c3n2)C1 (stereo not drawn) [I-149]
Property Label: pIC50
Assay Value: > 5.70

Compound: O=C(O)C1CN(c2cc(-n3ccnc3)c3ccc(Cl)cc3n2)CCS1 (stereo not drawn) [I-89]
Property Label: pIC50
Assay Value: 4.52 to 5.70

Compound: O=C(O)c1cccc(-c2cc(-n3ccnc3)c3ccc(C(F)(F)F)cc3n2)c1 [I-49]
Property Label: pIC50
Assay Value: < 4.52

Compound: O=C(O)[C@H]1CCCN1c1cc(-n2ccnc2)c2ccc(Cl)c(Cl)c2n1 [I-374]
Property Label: pIC50
Assay Value: > 5.70

Compound: Clc1cc(N2CCNCC2)c2ccc(Cl)c(Cl)c2n1 [I-312]
Property Label: pIC50
Assay Value: < 4.52

Compound: CC(=O)OCC(=O)N1CCOC(CNc2cc(-c3cn[nH]c3)c3ccc(Cl)c(Cl)c3n2)C1 (stereo not drawn) [I-400]
Property Label: pIC50
Assay Value: 4.52 to 5.70

Compound: C[C@@H](CS(N)(=O)=O)Nc1cc(-n2ccnc2)c2ccc(Cl)c(Cl)c2n1 [I-206]
Property Label: pIC50
Assay Value: 4.52 to 5.70

Compound: CS(=O)(=O)NC1CCCN(c2cc(-n3ccnc3)c3ccc(Cl)cc3n2)C1 (stereo not drawn) [I-105]
Property Label: pIC50
Assay Value: 4.52 to 5.70

Compound: COc1cccc(-c2cc(-n3ccnc3)c3ccc(Br)cc3n2)c1 [I-382]
Property Label: pIC50
Assay Value: 4.52 to 5.70

Compound: O=C(O)CNc1cc(Cl)nc2c(Cl)c(Cl)ccc12 [I-294]
Property Label: pIC50
Assay Value: < 4.52

Compound: O=C(O)CNC(=O)C[C@@H]1CCCN1c1cc(-n2ccnc2)c2ccc(Cl)c(Cl)c2n1 [I-156]
Property Label: pIC50
Assay Value: > 5.70

Compound: O=C(O)[C@@H]1CN(c2cc(-n3ccnc3)c3ccc(Cl)cc3n2)CC[C@@H]1O [I-136]
Property Label: pIC50
Assay Value: 4.52 to 5.70

Compound: O=C(O)[C@@H]1C[C@@H](NS(=O)(=O)c2ccccc2)CN1c1cc(-n2ccnc2)c2ccc(Cl)c(Cl)c2n1 [I-349]
Property Label: pIC50
Assay Value: > 5.70

Compound: Brc1ccc2c(-n3nccn3)ccnc2c1 [I-419]
Property Label: pIC50
Assay Value: < 4.52

Compound: CCOC(=O)C1CCN(c2cc(-n3ccnc3)c3ccc(Cl)cc3n2)C1 (stereo not drawn) [I-447]
Property Label: pIC50
Assay Value: < 4.52

Compound: O=C(O)[C@@H]1C[C@H](O)CN1c1cc(-c2cn[nH]c2)c2ccc(Cl)c(Cl)c2n1 [I-431]
Property Label: pIC50
Assay Value: > 5.70

Compound: COc1c(C(=O)O)cccc1-c1cc(-n2ccnc2)c2ccc(Cl)c(Cl)c2n1 [I-45]
Property Label: pIC50
Assay Value: 4.52 to 5.70

Compound: O=C(O)CNC(=O)[C@@H]1CN(c2cc(-c3cn[nH]c3)c3ccc(Cl)c(Cl)c3n2)CCO1 [I-341]
Property Label: pIC50
Assay Value: > 5.70

Compound: Cc1cn(-c2cc(-c3ccccc3)nc3cc(Cl)ccc23)cn1 [I-60]
Property Label: pIC50
Assay Value: < 4.52

Compound: Clc1ccc2c(-c3cn[nH]c3)cc(-c3ccccc3)nc2c1 [I-67]
Property Label: pIC50
Assay Value: 4.52 to 5.70

Compound: O=C(N[C@@H]1C[C@@H](C(=O)O)N(c2cc(-n3ccnc3)c3ccc(Cl)c(Cl)c3n2)C1)c1ccccc1 [I-350]
Property Label: pIC50
Assay Value: > 5.70
